TARGET UNDER TEST: Bile salt export pump (Homo sapiens, UniProt O95342)
Sequence (O95342 whole entry): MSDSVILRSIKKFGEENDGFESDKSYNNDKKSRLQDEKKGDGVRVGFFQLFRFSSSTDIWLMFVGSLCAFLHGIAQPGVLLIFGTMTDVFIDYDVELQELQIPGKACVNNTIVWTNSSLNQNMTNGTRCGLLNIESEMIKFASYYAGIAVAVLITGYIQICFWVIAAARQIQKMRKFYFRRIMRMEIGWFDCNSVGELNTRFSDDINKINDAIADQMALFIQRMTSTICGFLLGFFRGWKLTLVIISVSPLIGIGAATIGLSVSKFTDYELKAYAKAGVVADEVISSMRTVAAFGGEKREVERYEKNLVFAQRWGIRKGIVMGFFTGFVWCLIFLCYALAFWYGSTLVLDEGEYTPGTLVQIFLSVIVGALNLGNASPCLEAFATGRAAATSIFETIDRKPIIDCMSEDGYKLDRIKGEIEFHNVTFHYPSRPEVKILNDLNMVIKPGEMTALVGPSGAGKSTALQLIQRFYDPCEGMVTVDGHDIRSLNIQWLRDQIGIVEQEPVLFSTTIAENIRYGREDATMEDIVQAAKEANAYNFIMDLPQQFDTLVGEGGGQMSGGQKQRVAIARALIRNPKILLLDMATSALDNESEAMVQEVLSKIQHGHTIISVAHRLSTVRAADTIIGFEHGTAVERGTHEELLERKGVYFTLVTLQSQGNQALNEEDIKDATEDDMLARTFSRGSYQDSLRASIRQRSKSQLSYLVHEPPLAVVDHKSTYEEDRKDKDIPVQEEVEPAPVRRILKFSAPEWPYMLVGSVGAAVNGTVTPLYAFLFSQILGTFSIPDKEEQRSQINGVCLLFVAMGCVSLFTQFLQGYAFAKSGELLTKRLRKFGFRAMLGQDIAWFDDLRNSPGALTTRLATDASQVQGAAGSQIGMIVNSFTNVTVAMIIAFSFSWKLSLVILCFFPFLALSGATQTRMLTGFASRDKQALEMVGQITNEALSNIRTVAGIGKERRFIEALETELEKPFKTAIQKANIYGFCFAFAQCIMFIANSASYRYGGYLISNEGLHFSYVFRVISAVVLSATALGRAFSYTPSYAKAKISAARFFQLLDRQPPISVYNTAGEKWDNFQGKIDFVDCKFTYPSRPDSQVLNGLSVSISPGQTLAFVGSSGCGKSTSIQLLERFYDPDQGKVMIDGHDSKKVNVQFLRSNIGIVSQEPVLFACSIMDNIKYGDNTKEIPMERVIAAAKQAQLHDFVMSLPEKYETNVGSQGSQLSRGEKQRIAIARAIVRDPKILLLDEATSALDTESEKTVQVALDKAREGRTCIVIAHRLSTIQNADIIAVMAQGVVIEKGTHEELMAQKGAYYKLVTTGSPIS
RUN DESCRIPTION: Inhibition of human BSEP expressed in plasma membrane vesicles of Sf21 cells assessed as inhibition of ATP-dependent [3H]taurocholate uptake
Reported IC50 values follow for various molecules
Value expressed in µM; do not type the unit.

{"MOLECULE": "Cc1onc(-c2c(Cl)cccc2Cl)c1C(=O)N[C@@H]1C(=O)N2[C@@H]1SC(C)(C)[C@@H]2C(=O)O", "METRIC NAME": "IC50", "TEST VALUE": 69.7}

Need IC50 of CC(C)Cc1ccc(C(C)C(=O)O)cc1 (centres undefined) , thanks.
599
